// molecules with reported IC50 on UniProt:P16083, multi-publication

| molecule | result-operator | IC50 [µM] |
| --- | --- | --- |
| C/C(=C\c1ccc(C(F)(F)F)cc1)c1ccc(O)cc1 | = | 2.8 |
| COc1ccc2c(C)cc(=O)[nH]c2c1OC | = | 29.3 |
| CC(=O)NCCC1(O)C(=O)Nc2ccc(NC(C)=O)cc21 (configuration not stated) | = | 0.2 |
| COc1cc(OC)c2c(c1)c(C)cc(=O)n2C | = | 1.9 |
| NC(=O)/C(=C\c1cc(O)cc(O)c1)c1ccc(O)cc1 | = | 9.3 |
| O=C/C(=C/c1cc(O)cc(O)c1)c1ccc(O)cc1 | = | 25.5 |
| Cc1cc(=O)n(C)c2c1C(=O)C=CC2=O | > | 500 |
| Cc1cc(=O)[nH]c2ccccc12 | > | 500 |
| COC(=O)c1cc(C(=O)OC)c2c(Cl)cc(NC(C)=O)cc2n1 | > | 100 |
| COC(=O)c1cc(C(=O)OC)c2c(Cl)cc(N(C)C)cc2n1 | = | 4 |
| O=C(Nc1ccc(O)cc1)c1cc(O)cc(O)c1 | = | 27.6 |
| Cc1cc(=O)n(C)c2c3c(ccc12)OCO3 | = | 6.2 |
| CN1C(=O)c2cc(C(=O)NCc3ccccc3)nc3c(Cl)cc(Cl)c1c23 | = | 7.8 |
| OC/C(=C\c1cc(O)cc(O)c1)c1ccc(O)cc1 | = | 5.1 |
| COC(=O)c1cc(C(N)=O)nc2cc(N(C)C)cc(Cl)c12 | = | 1.6 |
| COc1ccc(/C=C(/c2cccc(C(F)(F)F)c2)C(F)(F)F)cc1OC | = | 0.18 |
| Oc1ccc(/C=C/c2ccc(C(F)(F)F)cc2)cc1O | < | 14.2 |

====

System: Ribosyldihydronicotinamide dehydrogenase [quinone] (Homo sapiens, UniProt P16083) | Read-out: IC50 | Origin: multiple publications
Target: Ribosyldihydronicotinamide dehydrogenase [quinone] (Homo sapiens, UniProt P16083)
Sequence (P16083 whole entry): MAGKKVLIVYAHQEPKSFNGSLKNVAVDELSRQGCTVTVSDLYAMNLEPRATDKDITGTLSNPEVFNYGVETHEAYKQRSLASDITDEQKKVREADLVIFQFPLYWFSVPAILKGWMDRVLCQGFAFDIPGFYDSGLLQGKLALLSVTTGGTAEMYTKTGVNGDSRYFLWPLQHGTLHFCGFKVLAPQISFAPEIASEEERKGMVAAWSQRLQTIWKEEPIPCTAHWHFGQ
measurement-type: IC50

| compound | assay-value |
| --- | --- |
| COc1cccc2c(C)cc(=O)[nH]c12 | 24.1 µM |
| COc1c(OC)c(OC)c2c(c(C)cc(=O)n2C)c1OC | > 500 µM |
| Oc1ccc(/C=C/c2ccc(O)c(O)c2)cc1 | 6 µM |
| COC(=O)c1cc(C(N)=O)nc2cc(N)c(I)cc12 | 1.5 µM |
| CNc1c(Cl)c(N)c2c3c(cc(C(N)=O)nc13)C(=O)N2C | 0.0041 µM |
| COc1ccc(/C(=C\c2cc(OC)cc(OC)c2)CO)cc1 | 27.5 µM |
| Oc1ccc(/C=C/c2cccc(F)c2)cc1O | 20.8 µM |
| N#C/C(=C\c1cc(O)cc(O)c1)c1ccc(O)cc1 | 5.9 µM |
| COc1cc(=O)n(C)c2c3c(ccc12)OCO3 | 54.1 µM |
| C/C(=C\c1cc(O)cc(O)c1)c1ccc(O)cc1 | 39 µM |
| COC(=O)c1cc(C(N)=O)nc2cc(NC(C)=O)cc(Cl)c12 | 9 µM |
| Cc1cc(=O)[nH]c2c3c(ccc12)OCO3 | 10.8 µM |
| COc1cc(/C=C/c2ccc(F)cc2)cc(OC)c1 | 4.6 µM |
| COc1ccc(/C=C/c2ccc(N(C)C)cc2)cc1OC | 13 µM |
| COC(=O)c1cc(C(=O)OC)c2c(Cl)c(N)c(N)cc2n1 | 0.24 µM |
| COc1cccc2c(C)cc(=O)n(C)c12 | 5.8 µM |
| COc1ccc(/C(C)=C/c2cc(OC)cc(OC)c2)cc1 | 20.1 µM |
| CC(=O)Nc1ccc2c(c1)C(CC#N)C(=O)N2 (stereo unspecified) | 14.1 µM |
| COc1ccc2c(n1)c(CCNC(=O)c1ccco1)c1n2Cc2cccnc2-1 | 0.005 µM |
| COC(=O)c1cc(C(N)=O)nc2cc(N)c(N)c(Cl)c12 | 0.15 µM |
| CC(=O)Nc1ccc2c(c1)C(CC#N)C(=O)N2C (stereo unspecified) | 7 µM |
| COc1ccc(/C(C)=C/c2cc(O)cc(O)c2)cc1OC | 33.7 µM |
| CC/C(=C\c1ccc(N(C)C)cc1)c1cc(O)cc(O)c1 | 10.9 µM |
| O=C(Nc1cc(O)cc(O)c1)c1ccc(O)cc1 | 16.8 µM |
| COC(=O)c1cc(C(=O)OC)c2c(Cl)cc(N)cc2n1 | 3.3 µM |
| Cc1cc(=O)n(C)c2ccccc12 | 18.2 µM |
